Data origin, for the record: paper PMC12209990

Assay: Phase I DDI study Part 1: tazemetostat plasma PK alone and with itraconazole (noncompartmental analysis)
Format: in vivo, human
Details: human, plasma, po, 400 mg, Part 1; tazemetostat 400 mg oral single dose alone, Day 1; plasma; read-out: t1/2, GeoMean (CV%) (converted)
value-type: half-life (h)
Field: numeric (h). Do not append units.

## Input Param item = CCN(c1cc(-c2ccc(CN3CCOCC3)cc2)cc(C(=O)NCc2c(C)cc(C)[nH]c2=O)c1C)C1CCOCC1 ; retrieve measured half-life.
## Output 5.97

* * *

Test: Phase I DDI study Part 1: tazemetostat plasma PK alone and with itraconazole (noncompartmental analysis)
Type: in vivo, human
Conditions: human, plasma, oral, Part 1; tazemetostat 400 mg multiple dosing with itraconazole 200 mg once daily, Day 36; plasma; read-out: tmax, median (range)
value-type: Tmax (h)
Field: numeric (h). Do not append units.

## Input Param item = CCN(c1cc(-c2ccc(CN3CCOCC3)cc2)cc(C(=O)NCc2c(C)cc(C)[nH]c2=O)c1C)C1CCOCC1 ; retrieve measured Tmax.
## Output 1.49

* * *

Test: Phase I DDI study Part 1: tazemetostat plasma PK alone and with itraconazole (noncompartmental analysis)
Assay type: in vivo, human
Settings: human, plasma, po, 400 mg, Part 1; tazemetostat 400 mg oral single dose alone, Day 1; plasma; read-out: Cmax, GeoMean (CV%)
value-type: Cmax (ng/mL)
Field: numeric (ng/mL). Do not append units.

## Input Param item = CCN(c1cc(-c2ccc(CN3CCOCC3)cc2)cc(C(=O)NCc2c(C)cc(C)[nH]c2=O)c1C)C1CCOCC1 ; retrieve measured Cmax.
## Output 704

* * *

Assay: Phase I DDI study Part 2: tazemetostat plasma PK alone and with rifampin (noncompartmental analysis)
Format: in vivo, human
Settings: human, plasma, oral, 800 mg, Part 2; tazemetostat 800 mg twice daily alone, multiple dosing, Day 15; plasma; read-out: AUC0‐12 h, GeoMean (CV%)
value-type: AUC (ng·h/mL)
Field: numeric (ng·h/mL). Do not append units.

## Input Param item = CCN(c1cc(-c2ccc(CN3CCOCC3)cc2)cc(C(=O)NCc2c(C)cc(C)[nH]c2=O)c1C)C1CCOCC1 ; retrieve measured AUC.
## Output 3610

* * *

Experiment: Phase I DDI study Part 1: tazemetostat plasma PK alone and with itraconazole (noncompartmental analysis)
Format: in vivo, human
Conditions: human, plasma, oral, Part 1; tazemetostat 400 mg multiple dosing with itraconazole 200 mg once daily, Day 36; plasma; read-out: AUClast, mean (SD)
Excerpt: This was a Phase I, multicenter, open‐label, 2‐part study encompassing a fixed‐sequence design that aimed to characterize the PK of tazemetostat when administered as single and twice‐daily oral doses alone or in combination with either itraconazole (Part 1) or rifampin (Part 2). […] Part 1 of the study evaluated the DDI between tazemetostat and itraconazole. […]
value-type: AUC(0-t) (ng·h/mL)
Field: numeric (ng·h/mL). Do not append units.

## Input Param item = CCN(c1cc(-c2ccc(CN3CCOCC3)cc2)cc(C(=O)NCc2c(C)cc(C)[nH]c2=O)c1C)C1CCOCC1 ; retrieve measured AUC(0-t).
## Output 6490

* * *

Assay: Phase I DDI study Part 1: tazemetostat plasma PK alone and with itraconazole (noncompartmental analysis)
Format: in vivo, human
Conditions: human, plasma, oral, Part 1; tazemetostat 400 mg single dose with itraconazole 200 mg once daily, Day 21; plasma; read-out: AUC0‐12 h, GeoMean (CV%)
value-type: AUC (ng·h/mL)
Field: numeric (ng·h/mL). Do not append units.

## Input Param item = CCN(c1cc(-c2ccc(CN3CCOCC3)cc2)cc(C(=O)NCc2c(C)cc(C)[nH]c2=O)c1C)C1CCOCC1 [Tazemetostat] ; retrieve measured AUC.
## Output 6790

* * *

Experiment: Phase I DDI study Part 1: tazemetostat plasma PK alone and with itraconazole (noncompartmental analysis)
Type: in vivo, human
Details: human, plasma, oral, Part 1; tazemetostat 400 mg multiple dosing with itraconazole 200 mg once daily, Day 36; plasma; read-out: t1/2, GeoMean (CV%) (converted)
value-type: half-life (h)
Field: numeric (h). Do not append units.

## Input Param item = CCN(c1cc(-c2ccc(CN3CCOCC3)cc2)cc(C(=O)NCc2c(C)cc(C)[nH]c2=O)c1C)C1CCOCC1 [Tazemetostat] ; retrieve measured half-life.
## Output 11.9

* * *

Test: Phase I DDI study Part 2: tazemetostat plasma PK alone and with rifampin (noncompartmental analysis)
Type: in vivo, human
Details: human, plasma, oral, Part 2; tazemetostat 800 mg multiple dosing with rifampin 600 mg once daily, Day 24; plasma; read-out: AUC0‐12 h, mean (SD)
value-type: AUC (ng·h/mL)
Field: numeric (ng·h/mL). Do not append units.

## Input Param item = CCN(c1cc(-c2ccc(CN3CCOCC3)cc2)cc(C(=O)NCc2c(C)cc(C)[nH]c2=O)c1C)C1CCOCC1 [Tazemetostat] ; retrieve measured AUC.
## Output 770

* * *

Assay: Phase I DDI study Part 1: tazemetostat plasma PK alone and with itraconazole (noncompartmental analysis)
Assay type: in vivo, human
Conditions: human, plasma, po, 400 mg, Part 1; tazemetostat 400 mg oral single dose alone, Day 1; plasma; read-out: t1/2, mean (SD) (converted)
value-type: half-life

## Input Param item = CCN(c1cc(-c2ccc(CN3CCOCC3)cc2)cc(C(=O)NCc2c(C)cc(C)[nH]c2=O)c1C)C1CCOCC1 ; retrieve measured half-life.
## Output 6.13 h

* * *

Experiment: Phase I DDI study Part 2: tazemetostat plasma PK alone and with rifampin (noncompartmental analysis)
Type: in vivo, human
Conditions: human, oral; Part 2; tazemetostat 800 mg multiple dosing with rifampin 600 mg once daily, Day 24; plasma; read-out: tmax, median (range)
value-type: Tmax (h)
Field: numeric (h). Do not append units.

## Input Param item = CCN(c1cc(-c2ccc(CN3CCOCC3)cc2)cc(C(=O)NCc2c(C)cc(C)[nH]c2=O)c1C)C1CCOCC1 ; retrieve measured Tmax.
## Output 1.01

* * *

Assay: Phase I DDI study Part 1: tazemetostat plasma PK alone and with itraconazole (noncompartmental analysis)
Type: in vivo, human
Conditions: human, plasma, po, 400 mg, Part 1; tazemetostat 400 mg oral single dose alone, Day 1; plasma; read-out: AUClast, GeoMean (CV%)
value-type: AUC(0-t) (µg·h/mL)
Field: numeric (µg·h/mL). Do not append units.

## Input Param item = CCN(c1cc(-c2ccc(CN3CCOCC3)cc2)cc(C(=O)NCc2c(C)cc(C)[nH]c2=O)c1C)C1CCOCC1 ; retrieve measured AUC(0-t).
## Output 2.64

* * *

Experiment: Phase I DDI study Part 1: tazemetostat plasma PK alone and with itraconazole (noncompartmental analysis)
Assay type: in vivo, human
Details: human, plasma, oral, Part 1; tazemetostat 400 mg multiple dosing with itraconazole 200 mg once daily, Day 36; plasma; read-out: Cmax, mean (SD)
value-type: Cmax (ng/mL)
Field: numeric (ng/mL). Do not append units.

## Input Param item = CCN(c1cc(-c2ccc(CN3CCOCC3)cc2)cc(C(=O)NCc2c(C)cc(C)[nH]c2=O)c1C)C1CCOCC1 ; retrieve measured Cmax.
## Output 1190

* * *

Assay: Phase I DDI study Part 1: tazemetostat plasma PK alone and with itraconazole (noncompartmental analysis)
Type: in vivo, human
Conditions: human, plasma, oral, Part 1; tazemetostat 400 mg single dose with itraconazole 200 mg once daily, Day 21; plasma; estimated over a 12‐hour dosing interval; read-out: t1/2, mean (SD) (converted)
value-type: half-life (h)
Field: numeric (h). Do not append units.

## Input Param item = CCN(c1cc(-c2ccc(CN3CCOCC3)cc2)cc(C(=O)NCc2c(C)cc(C)[nH]c2=O)c1C)C1CCOCC1 [Tazemetostat] ; retrieve measured half-life.
## Output 2.95

* * *

Experiment: Phase I DDI study Part 2: tazemetostat plasma PK alone and with rifampin (noncompartmental analysis)
Assay type: in vivo, human
Conditions: human, plasma, oral, Part 2; tazemetostat 800 mg multiple dosing with rifampin 600 mg once daily, Day 24; plasma; read-out: t1/2, GeoMean (CV%) (converted)
value-type: half-life (h)
Field: numeric (h). Do not append units.

## Input Param item = CCN(c1cc(-c2ccc(CN3CCOCC3)cc2)cc(C(=O)NCc2c(C)cc(C)[nH]c2=O)c1C)C1CCOCC1 ; retrieve measured half-life.
## Output 4.86

* * *

Test: Phase I DDI study Part 1: tazemetostat plasma PK alone and with itraconazole (noncompartmental analysis)
Format: in vivo, human
Details: human, plasma, oral, 400 mg, Part 1; tazemetostat 400 mg twice daily alone, multiple dosing, Day 15; plasma; read-out: tmax, median (range)
value-type: Tmax (h)
Field: numeric (h). Do not append units.

## Input Param item = CCN(c1cc(-c2ccc(CN3CCOCC3)cc2)cc(C(=O)NCc2c(C)cc(C)[nH]c2=O)c1C)C1CCOCC1 ; retrieve measured Tmax.
## Output 1.27

* * *

Assay: Phase I DDI study Part 2: tazemetostat plasma PK alone and with rifampin (noncompartmental analysis)
Format: in vivo, human
Settings: human, plasma, oral, 800 mg, Part 2; tazemetostat 800 mg twice daily alone, multiple dosing, Day 15; plasma; read-out: AUC0‐12 h, mean (SD)
value-type: AUC

## Input Param item = CCN(c1cc(-c2ccc(CN3CCOCC3)cc2)cc(C(=O)NCc2c(C)cc(C)[nH]c2=O)c1C)C1CCOCC1 ; retrieve measured AUC.
## Output 4330 ng·h/mL
